Could you please report measured TGI for the items listed next?
Tested on: MOLT-4 leukemia
Assay: NCI tumour cell line growth inhibition, 48 h

Entry CC1(C)CC(=O)C(CC2C(=O)c3ccccc3C2=O)C(=O)C1C(=O)C(=O)Nc1cccc2ccc(O)cc12 (stereo not drawn) needs its TGI filled in; supply it.
> 100 µM

Entry Cc1ccc2nc3sc(=O)sc3nc2c1 needs its TGI filled in; supply it.
50.1 µM

Entry CC(C)(C)c1cc(Oc2ccc(C#N)c(C#N)c2)cc(C(C)(C)C)c1 needs its TGI filled in; supply it.
> 100 µM

---

Could you please report measured TGI for the items listed next?
Tested on: HL-60(TB) leukemia
Assay: NCI tumour cell line growth inhibition, 48 h
Numbers only here, please. The scale is µM.

Fill: TGI (HL-60(TB) leukemia) for this compound Cc1cc2oc(=O)c(Cl)c(Cl)c2c(C)c1Cl
4.93

Fill: TGI (HL-60(TB) leukemia) for this compound CC(=O)O[C@@H]1[C@@H](C)[C@]2(CC(c3ccoc3)OC2O)C2CCC3O[C@]3(C)[C@]2(C)[C@@H]1OC(C)=O (some centres not stated)
48.7

Fill: TGI (HL-60(TB) leukemia) for this compound S=C1NCCN1C(=S)NC1CCCCC1
96.7

The reported numbers originate from PubChem BioAssay (NCI).
